# condition_notes: in ethyl acetate, 303.15 K
assay_metric: solubility (mole fraction)

query_smiles	assay_metric	recorded_number
O=C[C@H](O)[C@H](O)[C@H](O)CO	solubility (mole fraction)	0.00162

* * *

# condition_notes: in dichloromethane, 303.15 K
assay_metric: solubility (mole fraction)

query_smiles	recorded_number
O=C[C@H](O)[C@H](O)[C@H](O)CO	0.000529

* * *

# condition_notes: in acetone, 303.15 K

query_smiles	solubility (mole fraction)
O=C[C@H](O)[C@H](O)[C@H](O)CO	0.00509

* * *

# condition_notes: in isopropanol, 283.15 K

query_smiles	solubility (mole fraction)
O=C[C@H](O)[C@H](O)[C@H](O)CO	0.00457

* * *

# condition_notes: in ethanol, 293.15 K
assay_metric: solubility (mole fraction)

query_smiles	recorded_number
O=C[C@H](O)[C@H](O)[C@H](O)CO	0.0121

* * *

# condition_notes: in n-hexane, 293.15 K

query_smiles	solubility (mole fraction)
O=C[C@H](O)[C@H](O)[C@H](O)CO	7.32e-05

* * *

# condition_notes: in n-hexane, 283.15 K
assay_metric: solubility (mole fraction)

query_smiles	recorded_number
O=C[C@H](O)[C@H](O)[C@H](O)CO	3.77e-05

* * *

# condition_notes: in acetonitrile, 313.15 K

query_smiles	solubility (mole fraction)
O=C[C@H](O)[C@H](O)[C@H](O)CO	0.00357

* * *

# condition_notes: in n-propanol, 283.15 K
assay_metric: solubility (mole fraction)

query_smiles	result
O=C[C@H](O)[C@H](O)[C@H](O)CO	0.00515

* * *

# condition_notes: in acetonitrile, 323.15 K
assay_metric: solubility (mole fraction)

query_smiles	assay_metric	recorded_number
O=C[C@H](O)[C@H](O)[C@H](O)CO	solubility (mole fraction)	0.00626

* * *

# condition_notes: in ethanol, 303.15 K

query_smiles	solubility (mole fraction)
O=C[C@H](O)[C@H](O)[C@H](O)CO	0.0213

* * *

# condition_notes: in sec-butanol, 283.15 K

query_smiles	solubility (mole fraction)
O=C[C@H](O)[C@H](O)[C@H](O)CO	0.00484

* * *

# condition_notes: in acetone, 313.15 K

query_smiles	solubility (mole fraction)
O=C[C@H](O)[C@H](O)[C@H](O)CO	0.0077

* * *

# condition_notes: in methanol, 293.15 K

query_smiles	solubility (mole fraction)
O=C[C@H](O)[C@H](O)[C@H](O)CO	0.0587

* * *

# condition_notes: in acetone, 293.15 K

query_smiles	solubility (mole fraction)
O=C[C@H](O)[C@H](O)[C@H](O)CO	0.00302

* * *

# condition_notes: in n-butanol, 323.15 K

query_smiles	solubility (mole fraction)
O=C[C@H](O)[C@H](O)[C@H](O)CO	0.0201

* * *

# condition_notes: in methanol, 298.15 K

query_smiles	solubility (mole fraction)
O=C[C@H](O)[C@H](O)[C@H](O)CO	0.0771

* * *

# condition_notes: in isopropanol, 313.15 K

query_smiles	solubility (mole fraction)
O=C[C@H](O)[C@H](O)[C@H](O)CO	0.021

* * *

# condition_notes: in ethyl acetate, 283.15 K
assay_metric: solubility (mole fraction)

query_smiles	recorded_number
O=C[C@H](O)[C@H](O)[C@H](O)CO	0.000876

* * *

# condition_notes: in dichloromethane, 283.15 K

query_smiles	solubility (mole fraction)
O=C[C@H](O)[C@H](O)[C@H](O)CO	0.000102
